Entries and their measured log10 of MIC follow.
tested on: Bacillus pumilus; assay: Antibacterial activity against Bacillus pumilus CMCC63202 incubated for 24 hrs by CLSI-based broth microdilution method; format: functional
Note: values are log10 of MIC expressed in mg/L.

The following compounds have reported results that may help.
COMPOUND	MEASURED NUMBER
CCOc1ccc(C2CC(COc3ccc(F)c(C(N)=O)c3F)=NO2)cc1 (stereo unspecified)	1.81
CCCCc1ccc(C2CC(COc3ccc(F)c(C(N)=O)c3F)=NO2)cc1 (stereo unspecified)	-0.30
Cc1ccc(C2=NOC(COc3ccc(F)c(C(N)=O)c3F)C2)cc1 (stereo unspecified)	1.20
CCCOc1ccc(C2CC(COc3ccc(F)c(C(N)=O)c3F)=NO2)cc1 (stereo unspecified)	1.51
CCCCc1ccc(C2=NO[C@@H](COc3ccc(F)c(C(N)=O)c3F)C2)cc1	-0.30
NC(=O)c1c(F)ccc(OCC2=NOC(c3ccc(Cl)cc3Cl)C2)c1F (stereo unspecified)	-0.30
NC(=O)c1c(F)ccc(OCC2CC(c3ccc(Cl)cc3Cl)=NO2)c1F (stereo unspecified)	0.30
CC(C)(C)c1ccc(C2CC(COc3ccc(F)c(C(N)=O)c3F)=NO2)cc1 (stereo unspecified)	0.60

Q. For the compound NC(=O)c1c(F)ccc(OCC2CC(c3ccccc3)=NO2)c1F (stereo unspecified) , give its measured log10 of MIC value.
A. 1.81

Q. Fill in reported log10 of MIC for this entry: COc1cccc(C2=NOC(COc3ccc(F)c(C(N)=O)c3F)C2)c1 (stereo unspecified)
A. 1.51

Q. Name the recorded log10 of MIC of the item CC(C)c1ccc(C2CC(COc3ccc(F)c(C(N)=O)c3F)=NO2)cc1 (stereo unspecified) in your answer.
A. 0.90

Q. Report log10 of MIC, nothing else, for this compound: Cc1ccc(C2CC(COc3ccc(F)c(C(N)=O)c3F)=NO2)cc1 (stereo unspecified)
A. 1.81

Q. Look up and report measured log10 of MIC for this entry: CCc1ccc(C2=NOC(COc3ccc(F)c(C(N)=O)c3F)C2)cc1 (stereo unspecified)
A. 0.30

Q. Return log10 of MIC (reported value) for this compound: COc1ccc(C2=NOC(COc3ccc(F)c(C(N)=O)c3F)C2)cc1 (stereo unspecified)
A. 1.51

Q. Output log10 of MIC of NC(=O)c1c(F)ccc(OCC2=NOC(c3ccccc3Cl)C2)c1F (stereo unspecified)
A. 1.51

====

system: Bacillus pumilus; test: Antibacterial activity against Bacillus pumilus CMCC63202 incubated for 24 hrs by CLSI-based broth microdilution method; type: functional
REPORTED PROPERTY: MIC (µg/mL)
Write the answer as a number in µg/mL, unit excluded.

> print(dat)
                                   molecule  reported.property  measured.number
1  CCOc1ccc(C2=NOC(COc3ccc(F)c(C(N)=O)c3F)C2)cc1 (centres undefined)                MIC               16

Q. Answer with the recorded MIC for the molecule listed here: NC(=O)c1c(F)ccc(OCC2CC(c3ccc(F)cc3)=NO2)c1F (centres undefined)
A. 32

Q. Read the entry NC(=O)c1c(F)ccc(OCC2=NOC(c3ccc(Br)cc3)C2)c1F (centres undefined) and write its reported MIC.
A. 32

Q. Determine its reported MIC: NC(=O)c1c(F)ccc(OCC2=NOC(c3ccc(F)cc3)C2)c1F (centres undefined)
A. 64

Q. Specify measured MIC for CCCOc1ccc(C2=NOC(COc3ccc(F)c(C(N)=O)c3F)C2)cc1 (centres undefined) .
A. 4

Q. Please list MIC recorded for the molecule CC(=O)NC[C@H]1CN(c2ccc(N3CCOCC3)c(F)c2)C(=O)O1
A. 1

Q. Entry NC(=O)c1c(F)ccc(OCC2CC(c3ccc(Cl)cc3)=NO2)c1F (centres undefined) needs its MIC filled in; supply it.
A. 8

Q. # return recorded MIC for entry NC(=O)c1c(F)ccc(OCc2nc3cc(Cl)cnc3s2)c1F
A. 0.5
